Taken from paper PMC9301920.

# CLin vivo,int (in vivo intrinsic clearance) per record follows
testSummary: In vitro biotransformation rate, rainbow trout liver S9 (OECD TG 319)
Format: in vitro ADME
conditionParameters: from measured S9 clearance, transformed as suggested by Nichols et al.
Dear colleague, please return just the value in L/d/Kg fish, with no unit written.

Below: 5 compounds and their reported CLin vivo,int (in vivo intrinsic clearance).
# smi, val
rows = [
    ("CCC(C)(c1ccc(O)cc1)c1ccc(O)cc1", 56.4),
    ("Oc1ccc(Cc2ccc(O)cc2)cc1", 18.0),
    ("Oc1ccc(C2(c3ccc(O)cc3)CCCCC2)cc1", 17.4),
    ("CC(c1ccccc1)(c1ccc(O)cc1)c1ccc(O)cc1", 106),
    ("Cc1cc(C(C)(C)c2ccc(O)c(C)c2)ccc1O", 60.6),
]

Please give the measured CLin vivo,int (in vivo intrinsic clearance) for this compound: CC(C)(c1ccc(O)cc1)c1ccc(O)cc1
36.7

Please give the measured CLin vivo,int (in vivo intrinsic clearance) for this compound: CC(C)(c1cc(Br)c(O)c(Br)c1)c1cc(Br)c(O)c(Br)c1
245

Please give the measured CLin vivo,int (in vivo intrinsic clearance) for this compound: Oc1ccc(C(c2ccc(O)cc2)(C(F)(F)F)C(F)(F)F)cc1
45.5
